Experimental details: Example 1: body composition (proximate analysis of carcass)
Format: in vivo, broiler cockerels (Ross X Arbor Acre strain)
Run parameters: Group 1, dietary, 6 weeks-of-age, N = 8
Item-by-item account of Body composition: Water

Recorded results for 2 compounds are shown here.
# return recorded Body composition: Water for input `N[C@@H](Cc1cc(I)c(Oc2cc(I)c(O)c(I)c2)c(I)c1)C(=O)O` 65.8 ± .29 % BW

Recall and state the measured Body composition: Water for `CCCc1cc(=O)[nH]c(=S)[nH]1` . 61.9 ± .73 % BW

Next:
Return the recorded Body composition: Water value; entry: NC(=O)[C@@H]1CCCN1C(=O)[C@H](Cc1c[nH]cn1)NC(=O)[C@@H]1CCC(=O)N1 [TRH, L-pyroglutamyl-L-histidyl-L-prolinamide] 65.5 ± .73 % BW

Specify Body composition: Water for `N[C@@H](Cc1cc(I)c(Oc2ccc(O)c(I)c2)c(I)c1)C(=O)O` and stop. 68.6 ± 1.0 % BW

###

Experimental details: Example 1: growth and feed efficiency of broiler cockerels fed thyroid-active substances with or without daily ncGH injection
Assay type: in vivo, broiler cockerels (Ross X Arbor Acre strain)
Run parameters: 1 ppm T3, 1 ppm T4, 5 ppm TRH or 0.5% PTU in feed, 3 to 6 weeks of age; Group 1; mean ±SEM
Excerpt: The purpose of this study was to determine the effect manipulating blood levels of thyroid hormones and/or growth hormone on growth performance and body composition of broiler chickens. […] Purified natural chicken growth hormone (ncGH) was obtained from the Research and Education Center, Harbor-UCLA Medical Center, Torrance, Calif. […] The premix (200 g) was then used to prepare 50 kg batches of each experimental diet according to the formula for broiler-finisher ration described in Table 1. […]
The following compounds are listed with their measured BW (body weight) values.

Give BW (body weight) for the following compound: N[C@@H](Cc1cc(I)c(Oc2ccc(O)c(I)c2)c(I)c1)C(=O)O [T3, 3,3',5-triiodo-L-thyronine] 1.70 ± .09 kg

Assign BW (body weight) to the following record: CCCc1cc(=O)[nH]c(=S)[nH]1 [PTU, 6-N-propyl-2-thiouracil] 1.42 ± .05 kg

Read the entry N[C@@H](Cc1cc(I)c(Oc2cc(I)c(O)c(I)c2)c(I)c1)C(=O)O [T4] and write its reported BW (body weight). 1.76 ± .04 kg

Quote BW (body weight) reported for NC(=O)[C@@H]1CCCN1C(=O)[C@H](Cc1c[nH]cn1)NC(=O)[C@@H]1CCC(=O)N1 [TRH, L-pyroglutamyl-L-histidyl-L-prolinamide] please. 1.85 ± .08 kg

###

Experimental details: Example 1: body composition (proximate analysis of carcass)
Type: in vivo, broiler cockerels (Ross X Arbor Acre strain)
Run parameters: Group 1, dietary, 6 weeks-of-age, N = 8
Excerpt: The purpose of this study was to determine the effect manipulating blood levels of thyroid hormones and/or growth hormone on growth performance and body composition of broiler chickens. […] Purified natural chicken growth hormone (ncGH) was obtained from the Research and Education Center, Harbor-UCLA Medical Center, Torrance, Calif. […] The premix (200 g) was then used to prepare 50 kg batches of each experimental diet according to the formula for broiler-finisher ration described in Table 1. […]
In this section, each of the molecules is paired with its reported Body composition: Ash.

Solved entries (count: 3):
Specify Body composition: Ash for CCCc1cc(=O)[nH]c(=S)[nH]1 [PTU, 6-N-propyl-2-thiouracil] and stop. 2.17 ± .06 % BW

# return recorded Body composition: Ash for input NC(=O)[C@@H]1CCCN1C(=O)[C@H](Cc1c[nH]cn1)NC(=O)[C@@H]1CCC(=O)N1 [TRH, L-pyroglutamyl-L-histidyl-L-prolinamide] 2.34 ± .06 % BW

Write down Body composition: Ash measured for item N[C@@H](Cc1cc(I)c(Oc2ccc(O)c(I)c2)c(I)c1)C(=O)O [T3, 3,3',5-triiodo-L-thyronine] 2.19 ± .05 % BW

***
Provide one value: measured Body composition: Ash of N[C@@H](Cc1cc(I)c(Oc2cc(I)c(O)c(I)c2)c(I)c1)C(=O)O [T4] 2.35 ± .03 % BW

Where do the numbers come from? From patent US5168102A.
